# Test system: P388 leukemia ip, CD2F1 mice, survival T/C
# assay_summary: NCI In Vivo Anticancer Drug Screen. Data for tumor model P388 Leukemia (intraperitoneal) in CD2F1 (CDF1) mice
# assay_context: endpoint: median survival time; dose: 100.0 mg/kg/injection; schedule: Q01DX005 (ip); vehicle: saline with Tween-80; higher = longer survival
Toxic doses and inconclusive results are not listed. Square brackets hold non-standard residues; d marks the D form. Peptide text beside a SMILES is read from it. * marks the point of attachment. ξ: configuration not given here. Cbz = O=C(OCc1ccccc1)*; ξL = CC(C)CC(N)C(=O)O; OBn = c1ccc(CO*)cc1

compound | T/C
O=C1NC(=O)C2C3C=CC(C12)C1C2CCOC2C31 (centres undefined) | 100 % of control
Nc1ccccc1C(=O)NCCc1c[nH]c2ccccc12 | 107 % of control
CCOC(=O)CC1CC(=O)C(C(=O)OCC)C=C1C(=O)OCC (centres undefined) | 98 % of control
COc1ccc2ncc(C)c(CO)c2c1 | 102 % of control
COc1ccc(/C=N/OC(=S)NC2CCCCC2)cc1OC | 94 % of control
CC(=O)c1ccccc1NC(=O)COc1ccccc1OCC(=O)Nc1ccccc1C(C)=O | 92 % of control
CCN(CC)C(=O)c1ccc2c(c1OCOC)CCC2 | 97 % of control
O=c1[nH]n(CCc2ccccn2)c(=O)c(Cl)c1Cl | 100 % of control
Nc1ccc2ccccc2c1-c1cccc2ccccc12 | 96 % of control
C=CC1CC(NC(=O)c2ccccc2)C(=O)O1 (centres undefined) | 104 % of control
O=C1CCCC2=C1C1(OC3C=CC=CN23)C(=O)c2ccccc2C1=O (centres undefined) | 97 % of control
CC(=O)C(c1ccccc1)S(=O)(=O)c1ccc(C)cc1 (centres undefined) | 87 % of control
CCCCN(CCCC)CC(O)c1ccc(OC)c2ccccc12 (centres undefined) | 107 % of control
CC1(O)C2CCCCC2C2CCCCC2C1(C)O (centres undefined) | 100 % of control
CCC(c1ccc(O)cc1)c1cc2c(cc1OCCO)OCO2 (centres undefined) | 98 % of control
S=C1SCN(CCc2c[nH]c3ccccc23)CN1CCc1c[nH]c2ccccc12 | 90 % of control
O=[N+]([O-])c1cccc2c1ccc1nonc12 | 94 % of control
Cc1cc(=O)n(-c2ccc(S(=O)(=O)N=C(N)N)cc2)c(C)c1C(=O)O | 106 % of control
CCCCCCCCCCCCCCCCCC(=O)NC1=C(Cl)C(=O)c2ccccc2C1=O | 94 % of control
CC(C)CC(NC(=O)OCc1ccccc1)C(=O)NCC(=O)NCC(=O)OCc1ccccc1 (stereo not drawn) (Cbz-[ξL]-Gly-Gly-OBn) | 105 % of control
NC(=O)N=Nc1c(F)c(F)c(F)c(F)c1F | 113 % of control
Cc1ccc(S(=O)(=O)N/N=C/c2cc(I)cc([N+](=O)[O-])c2O)cc1 | 101 % of control
COc1ccc(N2C(=O)CCSC23C(=O)N(CN2CCOCC2)c2ccccc23)cc1 (centres undefined) | 106 % of control
O=C(/C=C/C1CCCC(O)C1)C1CCCCC1 (centres undefined) | 89 % of control

----------
# System: P388 leukemia ip, CD2F1 mice, survival T/C
# assay_summary: NCI In Vivo Anticancer Drug Screen. Data for tumor model P388 Leukemia (intraperitoneal) in CD2F1 (CDF1) mice
# assay_context: endpoint: median survival time; dose: 1.56 mg/kg/injection; schedule: Q01DX009 (ip); vehicle: saline
Toxic doses and inconclusive results are not listed. How the source made its calls: active means survival T/C of 150% or more; inactive means T/C below 125% in these data.
Outcome codes: active, inactive

molecule | assigned_class
[CH3][Sn]([CH3])([Cl])[CH2]CC[CH2][Sn]([CH3])([Cl])[Cl] | inactive
COC(=O)C1=C(C(=O)OC)[C]([Hg][CH3])(C(C)=O)N=N1 (stereo unspecified) | inactive
CN(C)Cc1cccc(CN(C)C)[c]1[Sn]([Br])([c]1ccccc1)[c]1ccccc1 | inactive
NCC[Se][Se]CCN | inactive
Nc1nc(N)c2cc(CNc3ccc(C(=O)NC(CC(=O)O)C(=O)O)cc3)ccc2n1 (stereo unspecified) | active
COC1=C(OC)C(=O)C=CC1=O | inactive
